system: KB-3-1 human cervical carcinoma cell line; assay: Cytotoxicity, CellTiter-Glo, monolayer; assay type: cell-based; details: read-out: IC50 2D; KB-3-1, 2D culture (Table 2)
property: pIC50
# pIC50: negative log10 of molar concentration; output just the value

Reported pIC50 for NCCN.[Cl][Pt][Cl] [[PtCl2(en)]] : what is it?
5.39

Reported pIC50 for N.N.[Cl][Pt][Cl] [Cisplatin, cis-[PtCl2(NH3)2]] : what is it?
5.60

----------
system: KB-3-1 human cervical carcinoma cell line; assay: Cytotoxicity, CellTiter-Glo, monolayer; type: cell-based; details: read-out: IC50 KB 3-1; solvent DMF; 72 h
Exercise: for every item that follows, state its recorded pIC50.
# pIC50: negative log10 of molar concentration; output just the value

Reported pIC50 for N.N.[Cl][Pt][Cl] [Cisplatin, cis-[PtCl2(NH3)2]] : what is it?
5.74

Reported pIC50 for CC1=CC(C)=[N+]2C1=Cc1ccc(CCC(=O)NCCNC(=O)C3C[NH][Pt]([Cl])([Cl])[NH]3)n1[B-]2(F)F (stereo not shown) [BODIPY-prop-Pt] : what is it?
4.67

Reported pIC50 for CC1=CC(C)=[N+]2C1=Cc1ccc(CCC(=O)NCCNC(=O)OC(C)(C)C)n1[B-]2(F)F [BODIPY-Boc] : what is it?
4.06

Reported pIC50 for NCCN.[Cl][Pt][Cl] [[PtCl2(en)]] : what is it?
6.00
